system: Vero E6; assay: cell viability relative to DMSO; higher = less toxic; conditions: 72 h; 100 nM
Readout Label: cell viability

IN: Query (compound): Cc1cc(-c2nncc3c(C(C)(C)C)c(OCc4ncnn4C)nn23)no1 ; field requested: cell viability
OUT: 98.5%

IN: Query (compound): CCCCCCC(=O)OC1CC(C)(C)NC(C)(C)C1 ; field requested: cell viability
OUT: 101%

IN: Query (compound): CC1(C)CC(=O)c2c(C(F)(F)F)nn(-c3ccc(C(N)=O)c(N[C@H]4CC[C@H](OC(=O)CN)CC4)c3)c2C1 ; field requested: cell viability
OUT: 97.5%

IN: Query (compound): O=C(Nc1ccc2c(O)cc(S(=O)(=O)O)cc2c1)Nc1ccc2c(O)cc(S(=O)(=O)O)cc2c1 ; field requested: cell viability
OUT: 102%

IN: Query (compound): O=C(/C=C/c1ccc(O)c(O)c1)c1ccc(O)cc1O ; field requested: cell viability
OUT: 102%

IN: Query (compound): Nc1c(S(=O)(=O)O)cc(Nc2cccc3ccccc23)c2c1C(=O)c1ccccc1C2=O ; field requested: cell viability
OUT: 97.3%

IN: Query (compound): CC[C@@H](c1ccc(F)c(F)c1)n1c(C(=O)OC)c(-c2ccno2)[nH]c1=S ; field requested: cell viability
OUT: 97.8%

IN: Query (compound): NCCS(=O)(=O)O ; field requested: cell viability
OUT: 95.1%

IN: Query (compound): CCCc1nc2c(C)cc(-c3nc4ccccc4n3C)cc2n1Cc1ccc(-c2ccccc2C(=O)O)cc1 ; field requested: cell viability
OUT: 96%

IN: Query (compound): CN1CCN(C(=O)C2C(C(=O)O)[C@H]3CC[C@@H]2O3)CC1 (stereo partly drawn) ; field requested: cell viability
OUT: 93.1%

IN: Query (compound): COc1ncc2cc(C(=O)Nc3cc(C(=O)NCc4cccc(Cl)c4)ccc3Cl)c(=O)[nH]c2n1 ; field requested: cell viability
OUT: 102%

IN: Query (compound): O=C(O)c1ccc2cc(-c3ccc(O)c(C45CC6CC(CC(C6)C4)C5)c3)ccc2c1 ; field requested: cell viability
OUT: 104%

IN: Query (compound): N[C@@H](C(=O)N[C@@H]1C(=O)N2C(C(=O)O)=C(Cl)CS[C@H]12)c1ccccc1 ; field requested: cell viability
OUT: 101%

IN: Query (compound): CC(C)(N)c1cc(C(=O)N[C@@H]2CCc3ccc(Oc4ccnc5c4CCC(=O)N5)cc3C2)cc(C(F)(F)F)c1 ; field requested: cell viability
OUT: 112%

IN: Query (compound): CS(=O)(=O)OCOS(C)(=O)=O ; field requested: cell viability
OUT: 102%

IN: Query (compound): CCCC(C)NC(=O)c1ccc(Cl)c(Cl)c1 (stereo not drawn) ; field requested: cell viability
OUT: 99.3%

IN: Query (compound): CCc1ccc(CCOc2ccc(CC3SC(=O)NC3=O)cc2)nc1 (stereo not drawn) ; field requested: cell viability
OUT: 98.9%

IN: Query (compound): CCCCC(=O)O[C@H]1CC[C@H]2[C@@H]3CCc4cc(O)ccc4[C@H]3CC[C@]12C [ESTRADIOL VALERATE] ; field requested: cell viability
OUT: 103%
